assay: Solubility of the compound at pH 7.4; assay type: physicochemical; conditions: buffer
endpoint: solubility

Each compound below has a recorded value; state its solubility.
1. COc1ccc2c(c1)c(C1=CCNCC1)cn2S(=O)(=O)c1ccc2cccnc2c1
2. COc1ccc2c(c1)c(C1=CCNCC1)cn2S(=O)(=O)c1cncc2ccccc12

1: > 5000 µg/mL; 2: > 5000 µg/mL

---

Kindly state Ki for each of the entries shown.
molecular target: 5-hydroxytryptamine receptor 6 (Homo sapiens); assay: Displacement of [3H]-LSD from human 5-HT6 receptor expressed in HEK293 cells by microbeta liquid scintillation counting; assay type: cell-based
Give bare numbers, in nM.

Here is how some molecules turned out for Ki.
>>> number("O=S(=O)(c1cnc2ccccc2c1)n1cc(C2=CCNCC2)c2ccc(Cl)cc21")
37
>>> number("COc1ccc2c(c1)c(C1=CCNCC1)cn2S(=O)(=O)c1cccc2ncccc12")
4
>>> number("O=S(=O)(c1cccc2ncccc12)n1cc(C2=CCNCC2)c2cc(Cl)ccc21")
11
>>> number("CCCCN1CC=C(c2cn(S(=O)(=O)c3ccc4cccnc4c3)c3ccc(OC)cc23)CC1")
219

Ki recorded for this molecule, `O=S(=O)(c1ccc2cccnc2c1)n1cc(C2=CCNCC2)c2ccc(Cl)cc21` , is 22

---

biological target: D(3) dopamine receptor (Homo sapiens, UniProt P35462); experiment: Displacement of [3H]-methyl-spiperone from human recombinant dopamine D3 receptor expressed in CHO cells after 60 mins by scintillation counting
Sequence (P35462 whole entry): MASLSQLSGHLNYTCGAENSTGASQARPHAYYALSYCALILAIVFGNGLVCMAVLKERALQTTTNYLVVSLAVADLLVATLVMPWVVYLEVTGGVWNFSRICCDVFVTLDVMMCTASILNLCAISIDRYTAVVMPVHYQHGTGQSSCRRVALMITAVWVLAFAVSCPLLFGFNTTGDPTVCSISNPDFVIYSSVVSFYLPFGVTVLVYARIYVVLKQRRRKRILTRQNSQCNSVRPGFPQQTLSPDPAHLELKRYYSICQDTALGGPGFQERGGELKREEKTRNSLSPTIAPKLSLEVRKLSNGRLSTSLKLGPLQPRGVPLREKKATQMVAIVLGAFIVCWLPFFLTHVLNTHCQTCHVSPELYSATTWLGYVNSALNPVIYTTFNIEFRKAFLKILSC
Hi there, I'd appreciate the recorded pKi for every entry that follows.
One number for each entry, as −log10 of the molar value.

>>> number("COc1ccc2c(c1)c(C1=CCNCC1)cn2S(=O)(=O)c1cncc2ccccc12")
6.82

# ---- query compound ----
Notebook: `COc1ccc2c(c1)c(C1=CCNCC1)cn2S(=O)(=O)c1ccc2cccnc2c1` , pKi read as 7.49

---

biological target: UniProtKB P50406; experiment: Inhibition of 5-HT6 receptor (unknown origin)
endpoint: pKi
Give bare numbers, as −log10 of the molar value.

Just so you know, measured pKi for `CSc1nn2c(C)cc(C)nc2c1S(=O)(=O)c1ccccc1` came out at 8.68

---

experiment: Drug uptake in Wistar rat brain at 3 mg/kg, ip after 30 mins by LC-MS/MS analysis; type: ADME, organism-based; conditions: read-out: Drug uptake
endpoint: concentration at 0.5 h

>>> result("COc1ccc2c(c1)c(C1=CCNCC1)cn2S(=O)(=O)c1cncc2ccccc12")
"18.6 ng/g"

The measured concentration at 0.5 h associated with `COc1ccc2c(c1)c(C1=CCNCC1)cn2S(=O)(=O)c1ccc2cccnc2c1` reads 21.9 ng/g

---

biological target: 5-hydroxytryptamine receptor 2A (Homo sapiens, UniProt P28223)
Sequence (P28223 whole entry): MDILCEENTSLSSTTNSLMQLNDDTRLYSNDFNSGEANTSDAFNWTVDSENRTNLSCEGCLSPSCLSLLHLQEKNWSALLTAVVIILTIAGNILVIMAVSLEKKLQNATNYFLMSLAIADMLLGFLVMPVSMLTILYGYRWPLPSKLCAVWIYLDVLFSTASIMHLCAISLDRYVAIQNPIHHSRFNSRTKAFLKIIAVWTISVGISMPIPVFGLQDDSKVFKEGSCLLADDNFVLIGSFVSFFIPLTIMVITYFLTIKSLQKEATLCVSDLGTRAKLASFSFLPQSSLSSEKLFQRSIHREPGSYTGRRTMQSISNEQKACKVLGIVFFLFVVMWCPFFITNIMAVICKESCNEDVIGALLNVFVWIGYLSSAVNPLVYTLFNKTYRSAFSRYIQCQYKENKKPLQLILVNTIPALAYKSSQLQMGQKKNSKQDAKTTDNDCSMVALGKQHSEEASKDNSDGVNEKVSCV
endpoint: pKi
Give bare numbers, as −log10 of the molar value.

I'm hoping you can list pKi for every compound here, please.
1. O=S(=O)(c1ccc2ncccc2c1)n1cc(C2=CCNCC2)c2ccccc21
2. COc1ccc2c(c1)c(C1=CCNCC1)cn2S(=O)(=O)c1ccc2cccnc2c1

1. 5.85
2. 6.00

---

target: 5-hydroxytryptamine receptor 1A (Homo sapiens); assay: Displacement of [3H]-8-OH-DPAT from human 5-HT1A receptor expressed in HEK293 cells by microbeta liquid scintillation counting; format: cell-based
Sequence (P08908 whole entry): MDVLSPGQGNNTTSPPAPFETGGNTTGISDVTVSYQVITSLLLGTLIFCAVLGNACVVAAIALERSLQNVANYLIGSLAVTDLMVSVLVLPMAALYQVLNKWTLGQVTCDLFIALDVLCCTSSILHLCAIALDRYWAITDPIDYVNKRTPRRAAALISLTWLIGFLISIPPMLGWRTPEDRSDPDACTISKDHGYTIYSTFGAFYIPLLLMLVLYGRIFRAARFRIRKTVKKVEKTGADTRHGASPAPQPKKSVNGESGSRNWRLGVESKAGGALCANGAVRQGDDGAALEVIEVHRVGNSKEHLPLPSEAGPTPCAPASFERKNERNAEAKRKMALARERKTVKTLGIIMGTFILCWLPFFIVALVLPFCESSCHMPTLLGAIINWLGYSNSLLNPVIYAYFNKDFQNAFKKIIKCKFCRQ
Assign Ki to each entry below.
Give bare numbers, in nM.

Below: 4 compounds and their reported Ki.
>>> number("O=S(=O)(c1ccc2cccnc2c1)n1cc(C2=CCNCC2)c2cc(Cl)ccc21")
2470
>>> number("O=S(=O)(c1ccc2ncccc2c1)n1cc(C2=CCNCC2)c2ccccc21")
1870
>>> number("COc1ccc2c(c1)c(C1=CCNCC1)cn2S(=O)(=O)c1cncc2ccccc12")
5010
>>> number("COc1ccc2c(c1)c(C1=CCNCC1)cn2S(=O)(=O)c1cccc2ncccc12")
2940

Attention now turns to another entry.
Consider `COc1ccc2c(c1)c(C1=CCNCC1)cn2S(=O)(=O)c1ccc2cccnc2c1` . Its measured Ki is 5040

---

target: 5-hydroxytryptamine receptor 6 (Rattus norvegicus, UniProt P31388)
Sequence (P31388 whole entry): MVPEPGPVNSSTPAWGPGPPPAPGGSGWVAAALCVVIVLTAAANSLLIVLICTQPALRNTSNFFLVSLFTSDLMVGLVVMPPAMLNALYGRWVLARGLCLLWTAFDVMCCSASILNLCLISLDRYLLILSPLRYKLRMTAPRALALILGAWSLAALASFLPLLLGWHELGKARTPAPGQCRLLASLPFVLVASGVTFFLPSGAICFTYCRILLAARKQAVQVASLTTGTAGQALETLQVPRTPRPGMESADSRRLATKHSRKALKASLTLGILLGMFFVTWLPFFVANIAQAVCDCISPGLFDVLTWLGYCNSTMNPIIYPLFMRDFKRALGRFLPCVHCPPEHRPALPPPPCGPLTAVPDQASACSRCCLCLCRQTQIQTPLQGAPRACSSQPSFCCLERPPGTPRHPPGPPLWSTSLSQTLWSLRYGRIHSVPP
endpoint: pKi
Give bare numbers, as −log10 of the molar value.

Entry O=S(=O)(c1ccccc1)c1cnc2c(N3CCNCC3)cccc2c1 [INTEPIRDINE] , pKi reported as 9.63

---

For each record, write down the corresponding Ratio Ki.
species: Homo sapiens; test: Selectivity ratio of Ki for human D2L receptor expressed in HEK293 cells to Ki for human 5-HT6 receptor expressed in HEK293 cells; type: cell-based

>>> result("COc1ccc2c(c1)c(C1=CCNCC1)cn2S(=O)(=O)c1cccc2ncccc12")
70
>>> result("O=S(=O)(c1ccc2cccnc2c1)n1cc(C2=CCNCC2)c2cc(Cl)ccc21")
70
>>> result("COc1ccc2c(c1)c(C1=CCNCC1)cn2S(=O)(=O)c1cncc2ccccc12")
70
>>> result("O=S(=O)(c1ccc2ncccc2c1)n1cc(C2=CCNCC2)c2ccccc21")
70

For the next question, use this compound.
Lab note: measured Ratio Ki of `COc1ccc2c(c1)c(C1=CCNCC1)cn2S(=O)(=O)c1ccc2cccnc2c1` was 70

---

# IC50 per entry for Cytochrome P450 2C9 (Homo sapiens, UniProt P11712)

>>> result("COc1ccc2c(c1)c(C1=CCNCC1)cn2S(=O)(=O)c1ccc2cccnc2c1")
"> 100 µM"

Entry under test: `COc1ccc2c(c1)c(C1=CCNCC1)cn2S(=O)(=O)c1cncc2ccccc12` . Its IC50 was > 100 µM

---

For reference, pIC50 measured on Cytochrome P450 3A4 (Homo sapiens, UniProt P08684):
One number for each entry, as −log10 of the molar value.

>>> number("COc1ccc2c(c1)c(C1=CCNCC1)cn2S(=O)(=O)c1ccc2cccnc2c1")
4.70

For record `COc1ccc2c(c1)c(C1=CCNCC1)cn2S(=O)(=O)c1cncc2ccccc12` the listed pIC50 is 4.59

---

target: D(2) dopamine receptor (Homo sapiens)
Sequence (P14416 whole entry): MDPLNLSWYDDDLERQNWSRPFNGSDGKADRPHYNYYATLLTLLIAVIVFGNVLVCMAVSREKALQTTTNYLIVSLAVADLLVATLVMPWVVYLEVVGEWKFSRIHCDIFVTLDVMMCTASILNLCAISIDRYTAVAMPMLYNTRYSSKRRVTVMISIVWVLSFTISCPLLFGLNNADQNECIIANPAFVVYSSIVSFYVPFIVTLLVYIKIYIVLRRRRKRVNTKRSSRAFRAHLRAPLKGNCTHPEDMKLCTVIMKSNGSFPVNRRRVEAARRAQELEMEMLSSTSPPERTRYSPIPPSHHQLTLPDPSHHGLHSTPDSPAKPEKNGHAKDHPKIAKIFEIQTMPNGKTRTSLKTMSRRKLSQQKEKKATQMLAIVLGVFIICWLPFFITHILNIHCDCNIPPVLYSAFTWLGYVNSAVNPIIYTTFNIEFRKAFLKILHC
pKi: −log10 of the molar value.
Kindly return 1 (yes) if reported pKi is no lower than 6; return 0 (no) if it is lower.

Solved cases (2 shown):
>>> label_class("COc1ccc2c(c1)c(C1=CCNCC1)cn2S(=O)(=O)c1ccc2cccnc2c1")
"1 (yes)"
>>> label_class("COc1ccc2c(c1)c(C1=CCNCC1)cn2S(=O)(=O)c1cncc2ccccc12")
"0 (no)"

Please find the next compound below.
Record `COc1ccc2c(c1)c(C1=CCNCC1)cn2S(=O)(=O)c1cccc2ncccc12` ; criterion: pKi no lower than 6. Met?
1 (yes)

---

Target: Cytochrome P450 1A2 (Homo sapiens)
Sequence (P05177 whole entry): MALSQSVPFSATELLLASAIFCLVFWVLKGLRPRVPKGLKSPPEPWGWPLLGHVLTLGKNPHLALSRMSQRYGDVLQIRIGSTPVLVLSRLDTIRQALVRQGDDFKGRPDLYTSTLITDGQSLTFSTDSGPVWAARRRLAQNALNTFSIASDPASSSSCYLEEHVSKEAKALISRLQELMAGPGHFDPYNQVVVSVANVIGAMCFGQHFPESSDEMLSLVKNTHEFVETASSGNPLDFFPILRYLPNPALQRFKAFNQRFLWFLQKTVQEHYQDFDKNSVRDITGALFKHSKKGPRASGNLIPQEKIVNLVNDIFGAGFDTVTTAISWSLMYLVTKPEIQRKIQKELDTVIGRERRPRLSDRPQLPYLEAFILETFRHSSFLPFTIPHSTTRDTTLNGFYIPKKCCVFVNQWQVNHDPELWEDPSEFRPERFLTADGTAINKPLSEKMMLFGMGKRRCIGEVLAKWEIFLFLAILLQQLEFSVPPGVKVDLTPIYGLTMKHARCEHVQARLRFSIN
endpoint: IC50 (µM)
Give bare numbers, in µM.

>>> number("COc1ccc2c(c1)c(C1=CCNCC1)cn2S(=O)(=O)c1ccc2cccnc2c1")
100

Now for the compound whose IC50 we want.
IC50 measured on `COc1ccc2c(c1)c(C1=CCNCC1)cn2S(=O)(=O)c1cncc2ccccc12` = 100

---

target: 5-hydroxytryptamine receptor 6 (Homo sapiens, UniProt P50406); test: Displacement of [3H]-LSD from human 5-HT6 receptor expressed in HEK293 cells by microbeta liquid scintillation counting; format: cell-based
Sequence (P50406 whole entry): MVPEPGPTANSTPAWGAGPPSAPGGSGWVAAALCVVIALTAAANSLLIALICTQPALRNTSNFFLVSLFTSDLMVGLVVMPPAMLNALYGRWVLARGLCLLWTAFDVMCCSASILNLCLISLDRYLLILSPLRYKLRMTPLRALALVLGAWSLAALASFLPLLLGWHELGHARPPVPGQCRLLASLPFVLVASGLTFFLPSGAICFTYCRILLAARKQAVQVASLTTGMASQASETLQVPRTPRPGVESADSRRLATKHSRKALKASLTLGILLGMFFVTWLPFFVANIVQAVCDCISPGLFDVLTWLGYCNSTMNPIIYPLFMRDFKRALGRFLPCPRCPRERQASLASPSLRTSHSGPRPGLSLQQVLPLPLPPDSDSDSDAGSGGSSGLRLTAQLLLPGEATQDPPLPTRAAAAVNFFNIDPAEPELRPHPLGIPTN
endpoint: Ki

Would you mind listing Ki for each of the following compounds?
1. COc1ccc2c(c1)c(C1CCNCC1)cn2S(=O)(=O)c1cncc2ccccc12
2. O=S(=O)(c1cncc2ccccc12)n1cc(C2=CCNCC2)c2ccccc21
3. COc1ccc2c(c1)c(C1=CCN(C)CC1)cn2S(=O)(=O)c1ccc2cccnc2c1

24 nM
5 nM
82 nM

Here are 5 compounds. What values of Ki were reported for them?
1. Cc1c(C2=CCNCC2)c2ccccc2n1S(=O)(=O)c1cc2ccccc2cn1
2. O=S(=O)(c1ccc2cccnc2c1)n1cc(C2=CCNCC2)c2ccccc21
3. O=S(=O)(c1cnc2ccccc2c1)n1cc(C2=CCNCC2)c2ccccc21
4. COc1ccc2c(c1)c(C1=CCNCC1)cn2S(=O)(=O)c1ccc2ncccc2c1
5. COc1ccc2c(c1)c(C1=CCNCC1)cn2S(=O)(=O)c1ccc2cccnc2c1

1. 20 nM
2. 7 nM
3. 13 nM
4. 14 nM
5. 2 nM

Please go through the list and note Ki for each compound.
1. O=S(=O)(c1cc2ccccc2cn1)n1cc(C2=CCNCC2)c2ccc(Cl)cc21
2. COc1ccc2c(c1)c(C1CCNCC1)cn2S(=O)(=O)c1ccc2cccnc2c1
3. O=S(=O)(c1ccc2cccnc2c1)n1cc(C2=CCNCC2)c2cc(Cl)ccc21
4. O=S(=O)(c1cncc2ccccc12)n1cc(C2=CCNCC2)c2cc(Cl)ccc21
5. COc1ccc2c(c1)c(C1=CCNCC1)cn2S(=O)(=O)c1cc2ccccc2cn1
6. COc1ccc2c(c1)c(C1=CCNCC1)cn2S(=O)(=O)c1cnc2ccccc2c1
7. O=S(=O)(c1ccc2ncccc2c1)n1cc(C2=CCNCC2)c2ccccc21

["102 nM", "30 nM", "9 nM", "18 nM", "6 nM", "8 nM", "20 nM"]

Please report Ki for every entry that follows.
1. O=S(=O)(c1ccc2ncccc2c1)n1cc(C2=CCNCC2)c2ccc(Cl)cc21
2. COc1ccc2c(c1)c(C1=CCNCC1)cn2S(=O)(=O)c1cncc2ccccc12
3. Cc1c(C2=CCNCC2)c2ccccc2n1S(=O)(=O)c1ccc2cccnc2c1
4. O=S(=O)(c1cc2ccccc2cn1)n1cc(C2=CCNCC2)c2ccccc21
5. CCCN1CC=C(c2cn(S(=O)(=O)c3ccc4cccnc4c3)c3ccc(OC)cc23)CC1
6. O=S(=O)(c1cnc2ccccc2c1)n1cc(C2=CCNCC2)c2cc(Cl)ccc21

1. 112 nM
2. 3 nM
3. 18 nM
4. 12 nM
5. 247 nM
6. 11 nM
